# System: OVCAR-3 ovarian
# experiment.notes: NCI tumour cell line growth inhibition, 48 h
measurement.kind: TGI

{"columns": ["molecule", "target", "TGI"],
 "data": [
  ["COC(=O)C(C(=O)C(=O)Nc1ccccc1C#N)c1nc2ccc([N+](=O)[O-])cc2[nH]c1=O (stereo not drawn)", "OVCAR-3 ovarian", "> 100 µM"]
]}

IN: Look at this molecule and give its reported TGI. COC(=O)c1ccc2c(c1)C(=O)c1c-2n(C)c(=O)c2cc(OC)c(OC)cc12
OUT: > 50 µM

IN: Which TGI is listed for CCOC(=O)NC(C(=O)OCC)(N1CCN(c2cc3c(cc2F)c(=O)c(C(=O)O)cn3CC)CC1)C(F)(F)F (stereo not drawn) ?
OUT: > 100 µM

* * *

# Test system: UACC-257 melanoma
# experiment.notes: NCI tumour cell line growth inhibition, 48 h
# Lookup of reported TGI keyed by entry
The figure you give is taken to be in µM; do not add the unit.

{"columns": ["compound", "unit.tag", "observed"],
 "data": [
  ["c1ccc(N=c2nc(N3CCOCC3)ss2)cc1", "µM", 29.8],
  ["NC1CCC(Nc2nc(NCc3cc(Cl)ccc3O)c3ncn(C4CCCC4)c3n2)CC1 (stereo unspecified)", "µM", 0.387],
  ["C=C1CCC2C3(C)COC(c4c(OC)cccc4OC)OC3CCC2(C)C1C/C=C1/C(=O)OCC1O (stereo unspecified)", "µM", 31]
]}

# input for lookup
IN: Which TGI is reported for this compound? COc1ccc2c(Cc3c4ccccc4cc4ccccc34)cncc2c1O
OUT: 14

* * *

# Test system: M19-MEL melanoma
# experiment.notes: NCI tumour cell line growth inhibition, 48 h
measurement.kind: TGI (µM)
A number alone suffices; assume µM.

{"columns": ["smiles", "TGI / µM"],
 "data": [
  ["Cc1cc2c(C(C)C)c(O)c(O)c(C=NCCO)c2c(O)c1-c1c(C)cc2c(C(C)C)c(O)c(O)c(C=NCCO)c2c1O", 3.62]
]}

IN: Fill blank: measured TGI of the compound Cc1cc2nc3ccc(=[N+](C)C)cc-3sc2cc1N is ____.
OUT: 0.354

IN: I have this compound here, C/C(=N\NC(=S)N1CCN(C2CCCCCC2)CC1)c1ccccn1 , and I need its recorded TGI.
OUT: 3.37

* * *

// reported TGI for each item listed
# Tested on: DU-145 prostate
# experiment.notes: NCI tumour cell line growth inhibition, 48 h

The cases that follow already have their TGI on record.
{"columns": ["compound", "observed"],
 "data": [
  ["COc1ccc(-c2nnc3n(Cc4ccccc4)c4ccccc4n3c2=O)cc1", "> 100 µM"],
  ["Nc1ccccc1NC(=O)c1ccc(CN2CCC/C(=C\\c3ccccn3)C2=O)cc1", "> 100 µM"],
  ["O=C(NNCC(F)(F)F)c1ccncc1", "> 100 µM"]
]}

IN: Fill blank: measured TGI of the compound Cc1cc(S(=O)(=O)NC2=NC(c3ccccc3)c3cc(Cl)ccc3N2)c(S)cc1Cl (stereo unspecified) is ____.
OUT: > 100 µM

IN: Could you share which TGI value was measured for O=C(c1ccco1)c1c(C(F)(F)F)nc2ccc(C(F)(F)F)cc2[n+]1[O-] ?
OUT: > 75.8 µM

IN: # get_value(readout='TGI', item= C[N+](C)(CCCCCC[N+](C)(C)CCCN1C(=O)c2cc3ccccc3cc2C1=O)CCCN1C(=O)c2cc3ccccc3cc2C1=O )
OUT: > 37.5 µM

IN: Field request: TGI | item: COc1cc(CNC2=NCCC2)cc(OC)c1OC
OUT: > 100 µM

IN: Name the reported TGI value associated with the compound CCOC(=O)C(=[N+]=[N-])C(=O)CN1C(=O)C2CC(C)=C(C)CC2C1O (stereo unspecified)
OUT: > 100 µM

IN: Item CN1C[C@H]2[C@@H](C1=O)[C@H](c1ccccc1)ON2C has what recorded TGI?
OUT: > 100 µM

IN: Param item = COc1ccc(-c2nc(Nc3ccc(-c4nc5ccccc5[nH]4)cc3)nc(N3CCOCC3)n2)cc1 ; retrieve measured TGI.
OUT: > 100 µM

IN: Recorded TGI for COc1c2c(cc3c1OCO3)C13C=CC(OC)CC1N(CC3)C2 (stereo unspecified) , please?
OUT: > 100 µM

IN: Please look up its TGI: CC1(C)CCCC(C)(C2CCC3(C)C2C(O)CC2C4(C)CCC(O)C(C)(C)C4C(O)CC23C)O1 (stereo unspecified)
OUT: 32.4 µM

IN: Field request: TGI | item: COc1ccc(/C=C/C(=N/NC(=O)N/N=C(/C=C/c2ccc(OC)cc2)C(C)(C)CN2CCCCC2)C(C)(C)CN2CCCCC2)cc1
OUT: > 10 µM

IN: I am curious: what TGI value has been reported for O=c1c2c(c3ccccc3n1-c1ccccc1)NC(=S)NC2c1ccc(Cl)cc1 (stereo unspecified) ?
OUT: 28.5 µM

IN: Looking for the measured TGI of C[N+](C)(C)/N=C/c1ccc(O)c(O)c1 , can you help?
OUT: > 100 µM

IN: If you can, please state the reported TGI value of COc1cc(OC)c2c(=O)c(OC)c(-c3ccc4c(c3)OCO4)oc2c1OC .
OUT: > 100 µM

Hello, the source for this data is PubChem BioAssay (NCI), in case you need it.
